Observed MIC for Escherichia coli Isogenic TEM-10, reported per entry below.
quantity measured: MIC (µg/mL)

| compound | unit info | data value |
| --- | --- | --- |
| Nc1nc(/C(=N/OC2(C(=O)O)CCOCC2)C(=O)N[C@H]2CON(C3(C(=O)O)C[C@H](N4Cc5cc(O)c(O)cc5C4=O)C(=O)O3)C2=O)cs1 (stereo partly drawn) | µg/mL | 0.03 |
| Nc1nc(/C(=N/OC2(C(=O)O)CNC2)C(=O)N[C@H]2CON(C3(C(=O)O)C[C@H](N4C(=O)c5cc(O)c(O)cc5C4=O)C(=O)O3)C2=O)cs1 (stereo partly drawn) | µg/mL | 0.12 |
| Nc1nc(/C(=N/OC2(C(=O)O)CCC(Cl)(Cl)CC2)C(=O)N[C@H]2CON(C3(C(=O)O)C[C@H](N4C(=O)c5cc(O)c(O)cc5C4=O)C(=O)O3)C2=O)cs1 (stereo partly drawn) | µg/mL | 0.06 |
| Nc1nc(/C(=N/OC2(C(=O)O)CCC2)C(=O)N[C@H]2CON(C3(C(=O)O)C[C@H](N4C(=O)c5cc(O)c(O)cc5C4=O)C(=O)O3)C2=O)cs1 (stereo partly drawn) | µg/mL | 0.03 |
| Nc1nc(/C(=N/OC2(C(=O)O)COC2)C(=O)N[C@H]2CON(C3(C(=O)O)C[C@H](N4C(=O)c5cc(O)c(O)cc5C4=O)C(=O)O3)C2=O)cs1 (stereo partly drawn) | µg/mL | 0.03 |
| Nc1nc(/C(=N/OC2(C(=O)O)CC3CCC(C2)O3)C(=O)N[C@H]2CON(C3(C(=O)O)C[C@H](N4C(=O)c5cc(O)c(O)nc5C4=O)C(=O)O3)C2=O)cs1 (stereo partly drawn) | µg/mL | 0.25 |
